Origin of values: the supplement of paper PMC9170038

# System: K4 kissing-loop RNA reporter;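 also: bound reporter read as fluorescence of individual clusters on recovered sequencing chips by microscopy, with normalized cluster intensities fitted with a binding model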
# experiment: apparent KD of K4 kissing-loop reporter; higher = weaker reporter binding
# measurement_setup: Eterna round: R107; input ligand: FMN 200 uM
Label scheme for apparent KD of K4 kissing-loop reporter: lower than 200 nM is Not fulfilled, 200 nM and above is Fulfilled.

Answered cases to consult:
GCGCGUCAUGUCAGCGGUGACACUGUCGAUACCAGUGCCGAAAGGCGCCCUUGGCAGCGACGUGCUGGAGUGAUGUUCCAGCGUU [#2 Exclusion - Theophylline A Attempt #30 (HarryS)] | Not fulfilled
UGAGGAGAAUAUGAUACCAGCAGAGAGAGAGAGGAAGUAUAGUGAUGUUAUAUGAGAGAAUGCCCUUGGCAGCAUAAGAAGAAGG [SSTheophylB.B] | Not fulfilled

*Q* Exam item: decide whether the reported apparent KD of K4 kissing-loop reporter for AGUAUGGCAACAUUGCAAGUAGCCGUACCACGAGGACCGGUACGGCCGCCACUCGAUAACUUGCAGUGAUGUUGCAAGUAAGAAU [(T)''-(K)'-(T)'-(T1)-(T2)-(K1)-(K2)_Design4] is at least 200 nM.
*A* Not fulfilled

*Q* Can AAUAAGGUCGCCGAUACCAGCGCAGGCAGAGCAAAGCUCUGCCAGGUAGUGAUGUUACCGCGCCCUUGGCAGCGGUGGCACGACC [Omei KL Theo B SS C v2] be said to have apparent KD of K4 kissing-loop reporter at or above 200 nM?
*A* Fulfilled

*Q* hey, is apparent KD of K4 kissing-loop reporter for this one >= 200 nM? UGACUGGAUUGAAGGAGCGCUAAACUCCUAGUGAUGUUAGGGACACAAGACAAAGUCUUGAGGCAGGUAGGUCGCAAUCUAGUCU [FiskerMod 5 - Jieux - Same State - Arginine B]
*A* Fulfilled
